measurement_label: logP

Form field: reported logP of Cc1cccc(C(=O)N(NC(=O)c2ccccc2)C(C)(C)C)c1C 3.1

Which logP reading was recorded for the molecule CC(C)(C)N(NC(=O)c1ccccc1)C(=O)c1ccc(Cl)cc1Cl ? 3.55

For the molecule CCc1ccccc1C(=O)N(NC(=O)c1ccccc1)C(C)(C)C , what logP is on record? 2.96

Which value of logP has been reported for COc1cccc(C(=O)N(NC(=O)c2ccccc2)C(C)(C)C)c1 in the records? 2.56

Which logP value belongs to CC(C)(C)N(NC(=O)c1ccccc1)C(=O)c1ccc(F)cc1 ? 2.85

Item under review: CC(C)(C)N(NC(=O)c1ccccc1)C(=O)c1cc(Cl)ccc1Cl . Reported logP? 3.36

For CC(C)(C)N(NC(=O)c1ccccc1)C(=O)c1ccccc1C(F)(F)F , what is its reported logP? 2.85

The origin of these recorded values is the SangsterLogP compilation.
